soluble fraction (log2) values, listed per item
assay explanation: soluble fraction after stress (log2 fold change); higher = more stays soluble; pooled small domains, quantitative proteomics
test conditions: stress: 50 degC
property measured: soluble fraction (log2)

macromolecule_sequence=HMNFDVETGLPLDSRLVVSGLIQRDGINSLKRYEGMIVYVESEAKNYQLVGGISNTDWAELS obs_value=-0.916
macromolecule_sequence=HMSTVTEVHYIAFKNGRIVDIKAALTGSAVTATSIKEQPKIENYNYTTSEVRDGILYHTYAPVA obs_value=-1.32
macromolecule_sequence=HMEMELNHVARRAGRLSGFLKGELRLSTGLMNRLKWSNAILVNGKPARTNAQVEPGDRITVILD obs_value=-0.976
macromolecule_sequence=HMLVYQRLDKDNFIFEGKTLLNDIYKILDIESNYFEAIRGEADSIAGLLLEIAKSIPTINTEF obs_value=-0.171
macromolecule_sequence=HMGRTGTVVVSPSLNVRTGPWGEIIGSLYNGNKVEIIGSSGDWYQISFGGKTAYVHSDYVVDGG obs_value=-0.51
macromolecule_sequence=HMKKYLNIYNIIVNKIESKEYQSNDKLPSEKELMDQYNVSRDTVRKSLNMLEQNGYIQKTKGKGSFVLDIN obs_value=-0.634
macromolecule_sequence=HMEQWVSIEVEPGIRLDVALTEATQKSRSFIQNLIAEQRVLVNGQPKKANYKVRPGDHVELNYPEPT obs_value=0.0849
macromolecule_sequence=HMRRMTEEQSKLFQGLVSIVQTTLVADMEKGAVTPLLIAEKVDFVADNLYPGKDIDRKEAVAELIRRFSLW obs_value=-0.339

Cited source for all entries: the domain aggregation screens of Martell et al. (2025)
